Hello, the source for this data is ChEMBL document CHEMBL3822432, in case you need it.

Kindly supply the reported MIC values for the records listed here.
# Test system: Staphylococcus aureus
# TEST_METHOD_NOTES: Antibacterial activity against methicillin-resistant Staphylococcus aureus USA 300 NRS 384 by two fold serial dilution method
# Assay type: functional
Non-standard residues stand in square brackets, D forms with d. Residues, ends and D or L forms follow the SMILES beside them. Ac6c = NC1(C(=O)O)CCCCC1; Ac5c = NC1(C(=O)O)CCCC1

Input: What MIC value was documented for this compound, CC(=O)NCC(=O)N[C@@H](Cc1ccccc1)C(=O)NC1(C(=O)NCC(=O)NC2(C(=O)N[C@@H](CCCCN)C(=O)NC3(C(=O)NCC(=O)NC4(C(=O)N[C@@H](Cc5ccccc5)C(=O)NC5(C(=O)NCC(=O)NC6(C(=O)NCC(=O)N[C@@H](CCCCN)C(=O)NC7(C(=O)N[C@@H](CCCCN)C(=O)N[C@@H](CCCCN)C(=O)N[C@@H](CCCCN)C(=O)N[C@@H](CCCCN)C(N)=O)CCCC7)CCCC6)CCCC5)CCCC4)CCCC3)CCCC2)CCCC1 (Ac-GF[Ac5c]G[Ac5c]K[Ac5c]G[Ac5c]F[Ac5c]G[Ac5c]GK[Ac5c]KKKK-NH2) ?
Output: > 46 µM

Input: What MIC value was documented for this compound, CC(=O)N[C@@H](CCCCN)C(=O)N[C@@H](CCCCN)C(=O)N[C@@H](CCCCN)C(=O)N[C@@H](CCCCN)C(=O)NCC(=O)N[C@@H](Cc1ccccc1)C(=O)NC1(C(=O)NCC(=O)NC2(C(=O)N[C@@H](CCCCN)C(=O)NC3(C(=O)NCC(=O)NC4(C(=O)N[C@@H](Cc5ccccc5)C(=O)NC5(C(=O)NCC(=O)NC6(C(=O)NCC(=O)N[C@@H](CCCCN)C(=O)NC7(C(N)=O)CCCCC7)CCCCC6)CCCCC5)CCCCC4)CCCCC3)CCCCC2)CCCCC1 (Ac-KKKKGF[Ac6c]G[Ac6c]K[Ac6c]G[Ac6c]F[Ac6c]G[Ac6c]GK[Ac6c]-NH2) ?
Output: 43.8 µM

###

# TEST_METHOD_NOTES: Antiproliferative activity against human DLD1 cells after 72 hrs by Celltiter-Glo luminescent cell viability assay
# Format: functional, cell-based
# EXPERIMENTAL_CONDITIONS: DLD-1, 72 h
Non-standard residues stand in square brackets, D forms with d. Residues, ends and D or L forms follow the SMILES beside them. ξ: configuration not given here. Ac6c = NC1(C(=O)O)CCCCC1; ξDab = NCCC(N)C(=O)O
QUANTITY: pIC50
Convention used: pIC50 is expressed as -log10 of the molar concentration.

Input: What pIC50 value was documented for this molecule, CC(=O)NCC(=O)N[C@@H](Cc1ccccc1)C(=O)NC1(C(=O)NCC(=O)NC2(C(=O)NC(CCN)C(=O)NC3(C(=O)NCC(=O)NC4(C(=O)N[C@@H](Cc5ccccc5)C(=O)NC5(C(=O)NCC(=O)NC6(C(=O)NCC(=O)NC(CCN)C(=O)NC7(C(=O)NC(CCN)C(=O)NC(CCN)C(=O)NC(CCN)C(=O)NC(CCN)C(N)=O)CCCCC7)CCCCC6)CCCCC5)CCCCC4)CCCCC3)CCCCC2)CCCCC1 (some centres not stated) (Ac-GF[Ac6c]G[Ac6c][ξDab][Ac6c]G[Ac6c]F[Ac6c]G[Ac6c]G[ξDab][Ac6c][ξDab][ξDab][ξDab][ξDab]-NH2) ?
Output: 5.59

###

# TEST_METHOD_NOTES: Antiproliferative activity against human DLD1 cells after 72 hrs by Celltiter-Glo luminescent cell viability assay
# Type: functional, cell-based
# EXPERIMENTAL_CONDITIONS: DLD-1, 72 h
pIC50: −log10 of the molar value. Non-standard residues stand in square brackets, D forms with d. Residues, ends and D or L forms follow the SMILES beside them. Ac5c = NC1(C(=O)O)CCCC1
QUANTITY: pIC50

Input: What pIC50 value was documented for this molecule, CC(=O)NCC(=O)N[C@@H](Cc1ccccc1)C(=O)NC1(C(=O)NCC(=O)NC2(C(=O)N[C@@H](CCCCN)C(=O)NC3(C(=O)NCC(=O)NC4(C(=O)N[C@@H](Cc5ccccc5)C(=O)NC5(C(=O)NCC(=O)NC6(C(=O)NCC(=O)N[C@@H](CCCCN)C(=O)NC7(C(=O)N[C@@H](CCCCN)C(=O)N[C@@H](CCCCN)C(=O)N[C@@H](CCCCN)C(=O)N[C@@H](CCCCN)C(N)=O)CCCC7)CCCC6)CCCC5)CCCC4)CCCC3)CCCC2)CCCC1 (Ac-GF[Ac5c]G[Ac5c]K[Ac5c]G[Ac5c]F[Ac5c]G[Ac5c]GK[Ac5c]KKKK-NH2) ?
Output: < 5.12

###

# Test system: NCI-H69
# TEST_METHOD_NOTES: Antiproliferative activity against human NCI-H69 cells after 72 hrs by Celltiter-Glo luminescent cell viability assay
# Format: functional, cell-based
# EXPERIMENTAL_CONDITIONS: NCI-H69, 72 h
Non-standard residues stand in square brackets, D forms with d. Residues, ends and D or L forms follow the SMILES beside them. ξ: configuration not given here. Ac6c = NC1(C(=O)O)CCCCC1; Ac5c = NC1(C(=O)O)CCCC1; ξOrn = NCCCC(N)C(=O)O
Kindly supply the reported pIC50 values for the records listed here.
Convention used: pIC50 is expressed as -log10 of the molar concentration.

Input: Any idea what pIC50 came out for CC(=O)NCC(=O)N[C@@H](Cc1ccccc1)C(=O)NC1(C(=O)NCC(=O)NC2(C(=O)NC(CCCN)C(=O)NC3(C(=O)NCC(=O)NC4(C(=O)N[C@@H](Cc5ccccc5)C(=O)NC5(C(=O)NCC(=O)NC6(C(=O)NCC(=O)NC(CCCN)C(=O)NC7(C(=O)NC(CCCN)C(=O)NC(CCCN)C(=O)NC(CCCN)C(=O)NC(CCCN)C(N)=O)CCCCC7)CCCCC6)CCCCC5)CCCCC4)CCCCC3)CCCCC2)CCCCC1 (some centres undefined) (Ac-GF[Ac6c]G[Ac6c][ξOrn][Ac6c]G[Ac6c]F[Ac6c]G[Ac6c]G[ξOrn][Ac6c][ξOrn][ξOrn][ξOrn][ξOrn]-NH2) on NCI-H69?
Output: 5.77

Input: Any idea what pIC50 came out for CC(=O)N[C@@H](CCCCN)C(=O)N[C@@H](CCCCN)C(=O)N[C@@H](CCCCN)C(=O)N[C@@H](CCCCN)C(=O)NCC(=O)N[C@@H](Cc1ccccc1)C(=O)NC1(C(=O)NCC(=O)NC2(C(=O)N[C@@H](CCCCN)C(=O)NC3(C(=O)NCC(=O)NC4(C(=O)N[C@@H](Cc5ccccc5)C(=O)NC5(C(=O)NCC(=O)NC6(C(=O)NCC(=O)N[C@@H](CCCCN)C(=O)NC7(C(N)=O)CCCCC7)CCCCC6)CCCCC5)CCCCC4)CCCCC3)CCCCC2)CCCCC1 (Ac-KKKKGF[Ac6c]G[Ac6c]K[Ac6c]G[Ac6c]F[Ac6c]G[Ac6c]GK[Ac6c]-NH2) on NCI-H69?
Output: 5.66

Input: Any idea what pIC50 came out for CC(=O)NCC(=O)N[C@@H](Cc1ccccc1)C(=O)NC1(C(=O)NCC(=O)NC2(C(=O)N[C@@H](CCCCN)C(=O)NC3(C(=O)NCC(=O)NC4(C(=O)N[C@@H](Cc5ccccc5)C(=O)NC5(C(=O)NCC(=O)NC6(C(=O)NCC(=O)N[C@@H](CCCCN)C(=O)NC7(C(=O)N[C@@H](CCCCN)C(=O)N[C@@H](CCCCN)C(=O)N[C@@H](CCCCN)C(=O)N[C@@H](CCCCN)C(N)=O)CCCC7)CCCCC6)CCCC5)CCCCC4)CCCC3)CCCCC2)CCCC1 (Ac-GF[Ac5c]G[Ac6c]K[Ac5c]G[Ac6c]F[Ac5c]G[Ac6c]GK[Ac5c]KKKK-NH2) on NCI-H69?
Output: 5.23

###

Kindly supply the reported MIC values for the records listed here.
# Tested on: Burkholderia pseudomallei
# TEST_METHOD_NOTES: Antibacterial activity against Burkholderia pseudomallei AHS 1 NCTC 8016 by two fold serial dilution method
# Format: functional
Non-standard residues stand in square brackets, D forms with d. Residues, ends and D or L forms follow the SMILES beside them. ξ: configuration not given here. Ac6c = NC1(C(=O)O)CCCCC1; ξDab = NCCC(N)C(=O)O

Input: What MIC value was documented for this compound, CC(=O)NCC(=O)N[C@@H](Cc1ccccc1)C(=O)NC1(C(=O)NCC(=O)NC2(C(=O)NC(CCN)C(=O)NC3(C(=O)NCC(=O)NC4(C(=O)N[C@@H](Cc5ccccc5)C(=O)NC5(C(=O)NCC(=O)NC6(C(=O)NCC(=O)NC(CCN)C(=O)NC7(C(=O)NC(CCN)C(=O)NC(CCN)C(=O)NC(CCN)C(=O)NC(CCN)C(N)=O)CCCCC7)CCCCC6)CCCCC5)CCCCC4)CCCCC3)CCCCC2)CCCCC1 (stereo partly drawn) (Ac-GF[Ac6c]G[Ac6c][ξDab][Ac6c]G[Ac6c]F[Ac6c]G[Ac6c]G[ξDab][Ac6c][ξDab][ξDab][ξDab][ξDab]-NH2) ?
Output: > 47 µM

Input: What MIC value was documented for this compound, CC(=O)N[C@@H](CCCCN)C(=O)N[C@@H](CCCCN)C(=O)N[C@@H](CCCCN)C(=O)N[C@@H](CCCCN)C(=O)NCC(=O)N[C@@H](Cc1ccccc1)C(=O)NC1(C(=O)NCC(=O)NC2(C(=O)N[C@@H](CCCCN)C(=O)NC3(C(=O)NCC(=O)NC4(C(=O)N[C@@H](Cc5ccccc5)C(=O)NC5(C(=O)NCC(=O)NC6(C(=O)NCC(=O)N[C@@H](CCCCN)C(=O)NC7(C(N)=O)CCCCC7)CCCCC6)CCCCC5)CCCCC4)CCCCC3)CCCCC2)CCCCC1 (Ac-KKKKGF[Ac6c]G[Ac6c]K[Ac6c]G[Ac6c]F[Ac6c]G[Ac6c]GK[Ac6c]-NH2) ?
Output: > 44 µM

Input: What MIC value was documented for this compound, CN(C)[C@@H]1C(O)=C(C(N)=O)C(=O)[C@@]2(O)C(O)=C3C(=O)c4c(O)cccc4[C@@](C)(O)[C@H]3C[C@@H]12 ?
Output: 4.5 µM
